# Target under test: NLRP3 (Homo sapiens)
# Assay details: Human whole blood IL-1β release assay
# Type: cell-based
# Set-up: Plate out 80 μl of whole blood containing 1 μg/ml of LPS in 96-well, clear bottom cell culture plate; from tissue; host or cells: human whole blood from healthy donors
# Conditions: LPS 1 μg/ml, compound 3 hrs, nigericin 10 μM 1 hr, IL-1β by AlphaLisa, read-out: HWB IC50
Counter-ions that a name gives are not always drawn.
Quick reference for IC50 among some compounds

Lookup: IC50 / NLRP3 (Homo sapiens) / `O=C1Nc2c(ccc3c2CCC3)-c2ccnc(c2)OCCCCCn2ccc(n2)S(=O)(=O)N1`
1000 to 5000 nM

Lookup: IC50 / NLRP3 (Homo sapiens) / CC1(C)COc2cc(c(F)cn2)-c2ccc3c(c2NC(=O)NS(=O)(=O)c2ccn1n2)CCC3 [Example 38, sodium salt]
1000 to 5000 nM

Lookup: IC50 / NLRP3 (Homo sapiens) / `CN1CCCOc2cc(ccn2)-c2ccc3c(c2NC(=O)NS(=O)(=O)c2cc(n(C4CC4)n2)C1)CCC3`
1000 to 5000 nM

----------
# Target under test: NLRP3 (Homo sapiens)
# Assay details: THP-1 cells pyroptosis assay
# Format: cell-based
# Parameters: Seed THP-1 cells (25,000 cells/well) containing 1.0 μg/ml LPS in 40 μl of RPMI medium; host or cells: THP-1 cells
# Conditions: LPS 1 μg/ml, compound 3 hrs, nigericin 5 μM 1 hr, resazurin readout
Where a name gives a salt, the structure may show the parent alone.
Quick reference for IC50 among some molecules

Any idea what its IC50 is? The molecule is `Cc1cc2c(c3c1-c1ccnc(c1)OCCCCCn1ccc(n1)S(=O)(=O)NC(=O)N3)CCC2`
≤ 100 nM

Any idea what its IC50 is? The molecule is CC1(C)COc2cc(ccn2)-c2ccc3c(c2NC(=O)NS(=O)(=O)c2nn1cc2F)CCC3 [Example 27, sodium salt]
≤ 100 nM

Any idea what its IC50 is? The molecule is CC(C)c1cc(F)cc2c1NC(=O)NS(=O)(=O)c1nn(cc1F)C(C)(C)COc1cc-2ccn1 [Example 30, sodium salt]
≤ 100 nM

Any idea what its IC50 is? The molecule is `CN1CCOc2cc(ccn2)-c2ccc3c(c2NC(=O)NS(=O)(=O)c2ccn(n2)C(C)(C)C1=O)CCC3`
100 to 500 nM

Any idea what its IC50 is? The molecule is `O=C1Nc2c3c(cc(F)c2-c2ccnc(c2)OCCn2cc(F)c(n2)S(=O)(=O)N1)CCC3`
≤ 100 nM

Any idea what its IC50 is? The molecule is `O=C1Nc2c(ccc3c2CCC3)-c2ccnc(c2)OCCCn2ccc(n2)S(=O)(=O)N1`
500 to 1000 nM

Any idea what its IC50 is? The molecule is `O=C1Nc2c(ccc3c2CCC3)-c2ccnc(c2)OCCCCCn2cc(cn2)S(=O)(=O)N1`
100 to 500 nM

Any idea what its IC50 is? The molecule is `Cc1cc2c(c3c1-c1ccnc(c1)OCC(C)(C)n1cc(F)c(n1)S(=O)(=O)NC(=O)N3)CCC2`
≤ 100 nM

Any idea what its IC50 is? The molecule is `CC1(C)COc2cc(ccn2)-c2ccc3c(c2NC(=O)NS(=O)(=O)c2ccn1n2)CCC3`
100 to 500 nM

Any idea what its IC50 is? The molecule is Cc1cc2c(c3c1-c1ccnc(c1)OCCn1ccc(n1)S(=O)(=O)NC(=O)N3)CCC2 [Example 28, sodium salt]
≤ 100 nM

Any idea what its IC50 is? The molecule is `O=C1Nc2c(ccc3c2CCC3)-c2cccc(c2)OCCCn2ccc(n2)S(=O)(=O)N1`
1000 to 5000 nM

----------
Quick reference for IC50 among some compounds
# Target under test: NLRP3 (Homo sapiens)
# Assay details: THP-1 cells pyroptosis assay
# Format: cell-based
# Design: Seed THP-1 cells (25,000 cells/well) containing 1.0 μg/ml LPS in 40 μl of RPMI medium; host or cells: THP-1 cells
# Conditions: LPS 1 μg/ml, compound 3 hrs, nigericin 5 μM 1 hr, resazurin readout
Counter-ions that a name gives are not always drawn.

The cases that follow already have their IC50 on record.
# Compound, Target under test, IC50
data = [
    ("CC1(C)COc2cc(ccn2)-c2c(F)cc3c(c2NC(=O)NS(=O)(=O)c2nn1cc2F)CCC3 [Example 41, sodium salt]", "NLRP3 (Homo sapiens)", "≤ 100 nM"),
    ("CC(C)c1cc(F)cc2c1NC(=O)NS(=O)(=O)c1ccn(n1)CCCCCOc1cc-2ccn1", "NLRP3 (Homo sapiens)", "500 to 1000 nM"),
    ("O=C1Nc2c3c(cc4c2C(CCCCn2ccc(n2)S(=O)(=O)N1)CC4)CCC3 (racemic)", "NLRP3 (Homo sapiens)", "1000 to 5000 nM"),
    ("O=C1Nc2c(ccc3c2CCC3)-c2ccnc(c2)O[C@H]2COC[C@@H]2n2ccc(n2)S(=O)(=O)N1 (racemic)", "NLRP3 (Homo sapiens)", "≤ 100 nM"),
    ("Cc1cc2cc(n1)OCC(C)(C)n1ccc(n1)S(=O)(=O)NC(=O)Nc1c-2ccc2c1CCC2", "NLRP3 (Homo sapiens)", "≤ 100 nM"),
]

Any idea what its IC50 is? The compound is `O=C1Nc2c(ccc3c2CCC3)-c2cc(F)nc(c2)OCCn2cc(F)c(n2)S(=O)(=O)N1`
≤ 100 nM

Any idea what its IC50 is? The compound is `CC(C)c1cnn2c1NC(=O)NS(=O)(=O)c1nn(cc1F)C(C)(C)COc1cc-2ccn1`
500 to 1000 nM

Any idea what its IC50 is? The compound is O=C1Nc2c3c(cc4c2C(CCCCCn2ccc(n2)S(=O)(=O)N1)CC4)CCC3 (racemic)
100 to 500 nM

----------
# Target under test: UniProt Q96P20
# Assay details: Human whole blood IL-1β release assay
# Assay type: cell-based
# Design: Plate out 80 μl of whole blood containing 1 μg/ml of LPS in 96-well, clear bottom cell culture plate; from tissue; host or cells: human whole blood from healthy donors
# Conditions: LPS 1 μg/ml, compound 3 hrs, nigericin 10 μM 1 hr, IL-1β by AlphaLisa, read-out: HWB IC50
Structures can show the parent of a compound that is named as a salt.
Quantity name: IC50

# Compound, IC50
rows = [
    ("O=C1Nc2c(ccc3c2CCC3)-c2cccc(c2)OCCCCCn2ccc(n2)S(=O)(=O)N1", "1 to 5 µM"),
    ("CC1(C)COc2cc(ccn2)-c2ccc3c(c2NC(=O)NS(=O)(=O)c2nn1cc2F)CCC3 [Example 27, sodium salt]", "0.1 to 0.5 µM"),
    ("Cc1c2ccnc1OCC(C)(C)n1ccc(n1)S(=O)(=O)NC(=O)Nc1c-2ccc2c1CCC2 [Example 45, sodium salt]", "1 to 5 µM"),
    ("O=C1Nc2c3c(cc4c2C(CCCCCn2ccc(n2)S(=O)(=O)N1)CC4)CCC3 (racemic)", "1 to 5 µM"),
    ("O=C1Nc2c3c(cc4c2C(CCCCCCn2ccc(n2)S(=O)(=O)N1)CC4)CCC3 (racemic)", "5 to 10 µM"),
    ("O=C1Nc2c(ccc3c2CCC3)-c2ccnc(c2)OCCn2ccc(n2)S(=O)(=O)N1", "0.1 to 0.5 µM"),
    ("O=C1Nc2c(ccc3c2CCC3)-c2ccnc(c2)OCCOCCn2ccc(n2)S(=O)(=O)N1", "0.1 to 0.5 µM"),
    ("CC1(C)COc2nccc(c2F)-c2ccc3c(c2NC(=O)NS(=O)(=O)c2ccn1n2)CCC3 [Example 32, sodium salt]", "0.1 to 0.5 µM"),
    ("Cc1cc2c(c3c1-c1ccnc(c1)OCCCCCn1ccc(n1)S(=O)(=O)NC(=O)N3)CCC2", "0.5 to 1 µM"),
    ("CN1CCOc2cc(ccn2)-c2ccc3c(c2NC(=O)NS(=O)(=O)c2ccn(n2)CC1)CCC3", "0.5 to 1 µM"),
]

Then this compound:
Any idea what its IC50 is? The compound is `O=C1Nc2c(ccc3c2CCC3)-c2ccnc(c2)OCCCOCc2cc(nn2C2CC2)S(=O)(=O)N1`
0.1 to 0.5 µM

----------
Quick reference for IC50 among some compounds
# Target under test: NLRP3 (Homo sapiens, UniProt Q96P20)
# Sequence (Q96P20 whole entry): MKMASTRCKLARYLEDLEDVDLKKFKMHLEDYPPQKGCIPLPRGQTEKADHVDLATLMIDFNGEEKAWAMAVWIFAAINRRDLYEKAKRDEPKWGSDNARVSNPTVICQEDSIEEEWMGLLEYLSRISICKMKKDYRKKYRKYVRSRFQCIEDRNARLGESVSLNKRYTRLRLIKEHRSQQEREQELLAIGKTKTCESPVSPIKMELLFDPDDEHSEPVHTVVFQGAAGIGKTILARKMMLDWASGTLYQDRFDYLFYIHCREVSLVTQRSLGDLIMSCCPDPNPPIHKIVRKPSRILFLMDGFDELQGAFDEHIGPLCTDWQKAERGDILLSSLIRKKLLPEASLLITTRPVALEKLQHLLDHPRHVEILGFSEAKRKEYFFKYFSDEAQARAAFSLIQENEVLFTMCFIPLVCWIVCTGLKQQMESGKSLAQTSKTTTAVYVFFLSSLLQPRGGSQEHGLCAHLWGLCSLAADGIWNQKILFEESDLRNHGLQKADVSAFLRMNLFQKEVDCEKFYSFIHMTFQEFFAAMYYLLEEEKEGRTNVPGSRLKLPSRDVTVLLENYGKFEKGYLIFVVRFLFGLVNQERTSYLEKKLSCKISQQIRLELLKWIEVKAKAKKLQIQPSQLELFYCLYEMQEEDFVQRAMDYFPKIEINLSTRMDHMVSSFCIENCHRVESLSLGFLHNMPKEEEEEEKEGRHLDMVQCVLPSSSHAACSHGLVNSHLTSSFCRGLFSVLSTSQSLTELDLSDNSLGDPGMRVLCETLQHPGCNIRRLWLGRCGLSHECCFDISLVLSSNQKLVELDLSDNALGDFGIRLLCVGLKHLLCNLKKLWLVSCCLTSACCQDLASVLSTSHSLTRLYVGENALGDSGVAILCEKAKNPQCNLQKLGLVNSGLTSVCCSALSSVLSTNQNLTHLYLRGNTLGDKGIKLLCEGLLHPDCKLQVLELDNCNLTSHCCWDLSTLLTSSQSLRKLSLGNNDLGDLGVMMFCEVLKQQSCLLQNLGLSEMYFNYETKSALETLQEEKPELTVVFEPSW
# Assay details: THP-1 cells pyroptosis assay
# Assay type: cell-based
# Parameters: Seed THP-1 cells (25,000 cells/well) containing 1.0 μg/ml LPS in 40 μl of RPMI medium; host or cells: THP-1 cells
# Conditions: LPS 1 μg/ml, compound 3 hrs, nigericin 5 μM 1 hr, resazurin readout
Structures can show the parent of a compound that is named as a salt.

# Compound, IC50
measured = [
    ("Cc1c2ccnc1OCC(C)(C)n1ccc(n1)S(=O)(=O)NC(=O)Nc1c-2ccc2c1CCC2 [Example 45, sodium salt]", "1000 to 5000 nM"),
    ("O=C1Nc2c(ccc3c2CCC3)-c2ccnc(c2)OCc2cc(nn2C2CC2)S(=O)(=O)N1", "1000 to 5000 nM"),
    ("O=C1Nc2c(ccc3c2CCC3)-c2ccnc(c2)OCCCCCS(=O)(=O)N1", "500 to 1000 nM"),
    ("CC1(C)COCCOc2cc(ccn2)-c2ccc3c(c2NC(=O)NS(=O)(=O)c2ccn1n2)CCC3", "100 to 500 nM"),
]

Then this compound:
Any idea what its IC50 is? The compound is `O=C1Nc2c(ccc3c2CCC3)-c2ccnc(c2)OCCOCCn2ccc(n2)S(=O)(=O)N1`
100 to 500 nM
